IC50 for assorted molecules
Target: full-length human PKCι (Homo sapiens, UniProt P41743)
Construct: Recombinant, full-length human PKCι expressed in Sf21 insect cells is also commercially available
Test: PKCι IC50 IMAP assay, full-length PKCι at 150 μM ATP
Details: read-out: IC50 in IMAP assay against full length PKCi at 150 μM ATP

Worked examples follow.
{"columns": ["smiles.data", "IC50"],
 "data": [
  ["NCc1ccc(-c2nccc3c(NC[C@@H](N)Cc4ccccc4)nc(-c4ccncc4)nc23)o1", "0.1 to 1 µM"],
  ["CN(c1nc(-c2ccnc(Nc3nc(F)c(F)cc3F)c2)nc2cncc(C3CCC3)c12)C1CCNCC1", "< 0.1 µM"],
  ["CN1CCC(N(C)c2nc(-c3ccnc(Nc4c(F)cccc4F)c3)nc3cncc(C4CC4)c23)CC1", "< 0.1 µM"],
  ["CC(C)(C)c1cc2c(-c3nc(N4CCC(O)CC4)c4c(C5CC5)cncc4n3)ccnc2[nH]1", "< 0.1 µM"],
  ["COc1cncc2nc(-c3ccnc(NC(=O)Cc4ccc(C#N)cc4)c3)nc(N3CCNCC3)c12", "< 0.1 µM"]
]}

c1ccc(C2(c3cc4c(-c5nc(N6CCNCC6)c6c(C7CCC7)cncc6n5)ccnc4[nH]3)CCC2)cc1 yielded IC50 of < 0.1 µM

For this molecule ( N#Cc1cccc(Nc2cc(-c3nc(N4CC[C@H](O)[C@H](O)C4)c4c(C5CC5)cncc4n3)ccn2)c1 ), measured IC50 is 0.1 to 1 µM

====

Item-by-item account of pIC50
Molecular target: full-length human PKCι (Homo sapiens, UniProt P41743)
Construct: Recombinant, full-length human PKCι expressed in Sf21 insect cells is also commercially available
Sequence (P41743 1-596): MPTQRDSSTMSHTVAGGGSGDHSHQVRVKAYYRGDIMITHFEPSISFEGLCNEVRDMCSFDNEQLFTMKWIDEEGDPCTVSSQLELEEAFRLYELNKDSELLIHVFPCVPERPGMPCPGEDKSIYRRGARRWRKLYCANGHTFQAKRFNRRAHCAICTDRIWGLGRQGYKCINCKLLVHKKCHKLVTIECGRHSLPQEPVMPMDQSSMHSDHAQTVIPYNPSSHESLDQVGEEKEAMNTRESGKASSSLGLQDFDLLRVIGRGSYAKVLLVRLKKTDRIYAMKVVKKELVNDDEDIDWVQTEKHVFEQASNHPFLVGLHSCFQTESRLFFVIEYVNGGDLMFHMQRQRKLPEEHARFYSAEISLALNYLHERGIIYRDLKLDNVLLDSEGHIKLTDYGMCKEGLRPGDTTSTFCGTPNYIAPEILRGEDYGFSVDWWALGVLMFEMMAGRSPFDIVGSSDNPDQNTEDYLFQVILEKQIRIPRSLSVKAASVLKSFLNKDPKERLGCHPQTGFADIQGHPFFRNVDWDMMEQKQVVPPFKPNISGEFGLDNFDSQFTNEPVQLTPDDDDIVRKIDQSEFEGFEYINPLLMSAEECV
Test: PKCι IC50 IMAP assay, full-length PKCι at 150 μM ATP
Conditions: read-out: IC50 in IMAP assay against full length PKCi at 150 μM ATP
pIC50: −log10 of the molar value.

Solved cases below.
{"columns": ["molecule", "pIC50"],
 "data": [
  ["COc1cncc2nc(-c3ccnc(Nc4ccccc4F)c3)nc(N[C@@H]3CCNC3)c12 [Example 228]", "> 7.00"],
  ["COc1cncc2nc(-c3ccnc(Nc4ccccc4)c3)nc(N3CCC(O)C(O)C3)c12 (single isomer, unassigned) [Example 464]", "6.00 to 7.00"],
  ["c1cc(-c2nc(N3CCNCC3)c3c(C4CC4)cncc3n2)cc(N[C@@H]2CCOC2)n1 [Example 509]", "> 7.00"]
]}

Pending molecule:
GET /values?item= c1ccc(Nc2cc(-c3nc(N4CCCNCC4)c4c(C5CC5)cncc4n3)ccn2)cc1 [Example 632] &system= full-length human PKCι (Homo sapiens, UniProt P41743) returns pIC50: > 7.00
